Data provenance is the domain aggregation screens of Martell et al. (2025).

- assay remarks: soluble fraction after stress (log2 fold change); higher = more stays soluble; pooled small domains, quantitative proteomics
- condition label: stress: pH 4
Some sequences, each annotated with its measured soluble fraction (log2).
measurement kind: soluble fraction (log2)

# seq, op, readout number
data = [
    ("HMSKQKRIKYFLSILNIKSIKQFRKKDLDYFYQKRFIEIQKSSKDKKLVSNQLIELNAAKEYLDEIDFEN", "=", 0.295),
    ("HMGRWQPSTSAKQHGESALLLERLLHLERLTVSEAFHVLTINHRLNLSLPEYRSLLAVVQLPK", "=", -1.31),
    ("HMATLQLPVPKITLYPGELIRSDHLTDQRFNARALYHSAVYKSREDIVGKVARRTLLPGQPIPVNALR", "=", 0.194),
    ("HMKLNKRQYAYQVIRSRILDGTYVPGQRIIIDQIAKEVNSSHIPVREAIHQLESEQLIDYEPNIGAIVKG", "=", 0.181),
    ("HMSGSIIQQAENLERQFGDTREAILGTLSDPKMSEEILETLMERYNKQHGTNWDKNTWAEEWAKANK", "=", -0.355),
    ("HMSVEYRKTLSDGNEYQIVKEKNGYVIKKSLNEGLDYLEPMKNRKYYSSYSQAFKRLNLIAKEVNINEGYD", "=", 0.0946),
    ("HMNSGFEVFREVVNQGSFIGAANALGISAPAVSKQIKLLENRLGLLLLYRTTRNVTLTDIGKQLFDTLDNS", "=", -1.37),
    ("HMSPGAKIEVTGNTVNLRAGPGTNYDTRGQVKKGEQLPLLGEQGGWYRVQTSRGVAYLAGWLARVLT", "=", -0.0378),
    ("HMAYLTGFHAIEELIRAGKAKGPLLVANAGPRARTIMSLATDNKIRIDRLGEHELNRLAPGNRGIALYVE", "≥", 0.43),
    ("HMDVLSPEEWIEFRTAYNNNRYISQYGSKGATIEDDYATRLAMIGGKESYYFLNDPRWTEPGYGNLK", "=", -1.45),
    ("HMQYDESSQLGERFLNQALNALKADPDKVGDAQWEKLLKENSAKSRQEVLADIGLGKQLAIVIARELLS", "=", -0.37),
    ("HMKLSIGGTIEKLRRNKGLSHQQLANALGVTPDTVEKWEINAAYPDITLLSPIARLLGTTLDALLMF", "=", -0.828),
    ("HMETGELQQILEDVFSKNIGIVQDKREAAFSILMGMIMAKSRGRADGALVSTLLKKKLTEFLATSDQVR", "=", -0.196),
    ("HMTPYEVLVYESLKQKILSGGYAAGEKIPEQSVSEELGVSRSPLRSAIRRLASEGLIEYYPYRGAFVKA", "=", -0.751),
    ("HMQGEDEILKIHEALEELAQIDARLVRVVEMRYFVGLSNQEIADSLGVTTRTVERDWEKARTFLFNALHP", "=", -0.717),
    ("HMNIEDFKDKVKELKQYTYQELVEDVKLKTDRADVILPASKIYLEAMQQAKVDSIIVPKVGLAEGVAR", "=", 0.149),
    ("HMSISSSEAARSAVASSGGTVLGVSKASHGGYKAWAVRIQRADGSVVTGYVDRASGTVYDWVVNQAA", "=", 0.379),
]

---

Some sequences, each annotated with its measured soluble fraction (log2).
- assay remarks: soluble fraction after stress (log2 fold change); higher = more stays soluble; pooled small domains, quantitative proteomics
- condition label: stress: pH 4
measurement kind: soluble fraction (log2)

# seq, result
records = [
    ("HMSNYIVELSSSEKIDDIDNNNNLINSFFSKSDSQWEYKLVFKNKNEMDVFVKKISTNNKIISYKTSS", -0.106),
    ("HMEMTSREIIKRLEEDGWYHVKTTGDHYQMKHPTKPGKVTIVHPAKDLSIGTLRSIEKQSGVRL", "≥ 0.43"),
    ("HMANPFQELTERELDVLRQVAAGKNNREIAEALFIGEKTVKTHISNILSKLHLADRTQAAVYAWQQGMM", -1.14),
    ("HMDLQNIQNQLNTEFAKSDTRIIFWFDDKGEYEDEVSELQLGDVKLHILDGLNWFYSKYLLNEA", -0.467),
    ("HMLMKPQKTRDVLRYLKSIGWVRLRGGQGSHEIWGLPDGSIRAVIPAGHREISAGVLMQLKRAGVDVPTQW", -0.0803),
    ("HMRRPRGVFNLVPGKRFGFITPDGGGEDVFAHLANVRAGHVAEDRNAVEYGIGRGPDGRDQAVDIVPMP", 0.00891),
    ("HMHPNPLTEQEIAVLKGIAQGLSNQEIADQLYLSNGTVRNYVTNILSKLDAGNRTEAANIAKESGW", -0.279),
    ("HMPPRFVPATGADLRRWLDVSGLTAEAAGDLLGVSGARFRQWLSRYRSAPLPDPVRALLVALLRP", -0.156),
    ("HMNYTALLNNFSENMKKRRVELSLSQKELASIVGVSVRTIQNYENKKTIPTSAVMESISIALDMGLEKMID", 0.04),
    ("HMKLIPLTDMRGQLRSGAPLPWGVRDAQGNLLLGKGHVIASDDMLEALLARGMFVDAEEAKAARG", 0.105),
    ("HMDAVKKKVQSTNTLLDVLKQMLPQTSSNTLRKMLTNQRITVDGETIHRAKHTVEKDQTVEIHPKP", "≥ 0.43"),
    ("HMGEQVFSRKDLAINGNDLKAVFGWPPGPKYREALDQLFHWVLEDPARNRRETLLAYLHSLYD", -0.774),
    ("HMSGDYRALYSSLPPERASSVVDALNVAGIPYRIQDSTGAIMVPAEQIYDARIRLAGQGLGK", 0.0695),
    ("HMLNERQKKIIKILKDNKNWMTGKELSEFLNVSDRTIRSDIEYINRYNNALIESNVKNGYHLNFE", -0.0338),
    ("HMLLFNPGEVLKGFVLQSGTNNRVLLQIGDSRVIADTQTPLKAGEQLVLRVEETGPKTILQILG", 0.0206),
    ("HMDLIFQKGDLVFSTEHNQRGIFYEYLEQGQAKISIEKQFFVVAARRLQLLTKREVLYPAGYDLDQLFV", -1.05),
    ("HMHGERVVTAGQTVRVVFTSNGLQVSSEGKALAAGAVGDDIQVRAASGKVIRGTVTGPGVVQV", "≥ 0.43"),
]

---

- assay remarks: soluble fraction after stress (log2 fold change); higher = more stays soluble; pooled small domains, quantitative proteomics
- condition label: stress: pH 4
Some sequences, each annotated with its measured soluble fraction (log2).

# seq, soluble fraction (log2)
measured = [
    ("HMDPRTSSLTPQERKVLELVGGGLTNRQIAAEMFLAEKTVKNYVSSLLAKLGFERRTQAAVFIASPAF", -0.0756),
    ("HMQNLETVEEIKELALNYLDKYQPSKKSLQVYLFRKAIDAQSNSVEKSEILKKIETVLTDLEEQGILNDAL", -0.139),
    ("HMSENMSQDLAQWYRLQQALHPNLDAPELWATDLTSQQRTVRDQLIQQWAQEKRDSLWSEISGD", -0.618),
    ("HMARRKRDIDSDINVKVFEHWLDNLDSASRESFSAFAEETFSPIQVYLYAKFLGYESSIIAVDHWVAVAYP", -0.574),
    ("HMNMPDVTVEWVKEQQAKFGLTDSDLAKSVNIDNANLARIFNQRGLTKIHKALFYYFFRAYGLQ", -1.1),
    ("HMKGEIEELLYEEVTKDNNTTFLRIYIKLNDEYNTLLNLGIIGIKTEEKVNELVNLGYKKVL", -2.54),
    ("HMDSIDVQQKKLLTDIELGNIEGIKLFLKRHNNTINFLTIKGFHPLVYAVRNNNMEIVNLFLTT", 0.159),
    ("HMGDLEEAVKDFSEAIRLNDSWAEAYANRAVVYAEQGDAAQSDQDAEKARLLGVDQNRLNEMLNAVNS", -0.21),
]

---

Some sequences, each annotated with its measured soluble fraction (log2).
- assay remarks: soluble fraction after stress (log2 fold change); higher = more stays soluble; pooled small domains, quantitative proteomics
- condition label: stress: pH 4

# seq, soluble fraction (log2)
measured = [
    ("HMSRGTRIDPNWQPSPEDRALARAEGFSDPEIDREALQFRDYWLGASGSNAVKLDWSATWRNWVRRAATNF", -0.204),
    ("HMEAEGLDFAPMPGEIGKKLWQEVSKEAWAGWLKHQTMLVNENRLSFVDPAARKYLTEQTEAYFFG", -0.248),
    ("HMPSGLFEPIKKSELSIESIDLLKDQIRAFKQADIRITFGFLLDLITKGENPAYVNASKLFEQAWER", -0.241),
    ("HMHQLQLDSRSRLHMTGVIEVESFDEATIVLTTTRGTLIVRGENLHLQLLRLDGGEVLVDGTVDSLSYE", -1.22),
    ("HMDLEMLEVEDTIKDLLSQHQKINAIKYYRNYMSEQLNVDMGLRQAKDTIDAIGRGATVDLSVGY", -0.783),
    ("HMKFPPASDIRRMRKAIDVTQTELAKQSGVSQSTIAKIERGRISASYDTVVKLFETLDEMAK", -0.00924),
    ("HMLPDVSITGHIFIRSGSRLNRIFVGESTYHVGDMLDGKWLIESINSDSLELRSGTQTTELPL", -0.066),
    ("HMEQISIETRIEQLLARLSETEASGFEELFADTSSRADLITTFLALLEMIRLKLVRVFQDGSFGPIRIYKR", -1.5),
]
